- subject of test: T1, EBV minimal peptide PPSTSSKLRPRWTFT (spotted for dot blot) (Human herpesvirus 4 (Epstein-Barr …))
- T1 construct: also called EBV gp350 minimal peptide; 72153; source: "recombinant peptide" spotted on nitrocellulose
- T1 chain: PPSTSSKLRPRWTFT
- assay summary: far-Western, overlay or dot blot
- experimental context: one partner purified
result type: binding result

EBV_c63 (antibody, V domains shown, recombinant human IgG) VH: QVQLVQSGAEVKKPGASVKVSCKASGYTFTSYYIHWVRQAPGQGLEWMGIINPSDGTTDYAQRLQGRVTMTRVTSTSTVYMELSSLRSEDTAVYYCARDREQMVRGIIISNGLDVWGQGTTVTVSS VL: QSALTQPASVSGSPGQSITFSCTGTSSDVGGYNFVSWYQQHPGKAPKLMIYDVTNRPSGVSNRFSGSKSGNTASLTISGLQAEDEADYYCSSYTSSSTLVFGTGTKVTVL | binds
EBV_c40 (antibody, V domains shown, recombinant human IgG) VH: QVQMVQSGAEVKRPGDSVRVSCKASGYIFTNYHLHWVRQAPGQGLEWMGIVTPNGSRTNYAQKFKGRVIMSSEASTNTLYMDLSSLKSEDTAVYFCARARDLYGDSDFDYWGQGTPVMVSS VL: SYELSQPPSVSVSPGQTASVSCSGDSLGDKYVSWYQQRPGQSPVVVIYQDRKRPSGIPERFSGSNSGKAATLTISGAQAVDEATYFCQAWESSNVVFGGGTTLTVL | binds
EBV_c101 (antibody, V domains shown, recombinant human IgG) VH: QVHLVQSGTEVKKPGASVKVSCKASGYTFIDYFIHWVRQAPGQGLEWMGIINPGGGSTSYAQKFRGRVTVTRDASTSTVYLELRSLRSDDSAVYYCARGTAVSTNLGLLFDLWGQGTLVSVSS VL: SYELTQPPSVSVSPGQTARITCSGDDLPKNYAYWYQQKSGQAPTLVINEDNKRPSGIPERFSGSSSGTMATLTISGAQVEDEADYYCFSADSSGTHSVFGGGTKVTVL | binds
